tested system: Serine/threonine-protein kinase PLK1 (Homo sapiens) (UniProt P53350)
Sequence (P53350 whole entry, looked up): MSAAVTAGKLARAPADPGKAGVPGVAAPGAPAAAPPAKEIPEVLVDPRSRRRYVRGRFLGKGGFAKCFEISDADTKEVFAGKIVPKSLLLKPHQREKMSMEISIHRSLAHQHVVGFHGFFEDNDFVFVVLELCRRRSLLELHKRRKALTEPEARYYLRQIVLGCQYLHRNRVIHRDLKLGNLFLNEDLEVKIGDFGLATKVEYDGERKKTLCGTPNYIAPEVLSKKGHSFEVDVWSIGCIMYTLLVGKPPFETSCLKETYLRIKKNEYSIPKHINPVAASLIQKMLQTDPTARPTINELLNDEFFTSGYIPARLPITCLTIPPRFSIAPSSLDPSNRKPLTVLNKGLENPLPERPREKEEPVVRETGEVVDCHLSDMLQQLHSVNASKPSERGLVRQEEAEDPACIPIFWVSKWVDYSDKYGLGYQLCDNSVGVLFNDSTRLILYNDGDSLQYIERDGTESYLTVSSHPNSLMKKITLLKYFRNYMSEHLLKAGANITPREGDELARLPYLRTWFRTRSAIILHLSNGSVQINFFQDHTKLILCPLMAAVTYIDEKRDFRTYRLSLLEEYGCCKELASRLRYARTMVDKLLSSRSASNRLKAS
method description: blockers of recombinant PLK1 peptide phosphorylation – biochemical, TR-FRET, duplicate runs, confirmation (AID 744);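 also: 0% = DMSO max control and 100% = H-89 kinase-blocked min control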
measurement setup: at 10 µM, hits give high values
This is one part of the list.
I'd be grateful if you could share measured inhibition for these entries.
Provide only the numeric value, understood in %.

// inhibition lookup, molecule = CC1CN(c2cc(=O)n(Cc3ccc(F)cc3)c(=O)[nH]2)CC(C)O1 (centres undefined) , result: -5.99

Entry `C[N+]1(CCNC(=O)/C=N/O)CCCCC1` , inhibition reported as -0.685

The recorded inhibition for Cc1ccnc(N2C(=O)c3ccccc3C2Nc2ccc3c(c2)OCCO3)c1 (centres undefined) is -3.64

Looking up COc1ccc(-c2nc(CS(=O)CC(=O)NCc3cccnc3)c(C)o2)cc1OC (centres undefined) , I see its inhibition listed as -2.97
